Molecular target: cloned human MC4R (Homo sapiens, UniProt P32245)
Construct: made in house; host or cells: Hi5 insect cells (baculovirus infection); membrane preparation
Sequence (P32245 whole entry): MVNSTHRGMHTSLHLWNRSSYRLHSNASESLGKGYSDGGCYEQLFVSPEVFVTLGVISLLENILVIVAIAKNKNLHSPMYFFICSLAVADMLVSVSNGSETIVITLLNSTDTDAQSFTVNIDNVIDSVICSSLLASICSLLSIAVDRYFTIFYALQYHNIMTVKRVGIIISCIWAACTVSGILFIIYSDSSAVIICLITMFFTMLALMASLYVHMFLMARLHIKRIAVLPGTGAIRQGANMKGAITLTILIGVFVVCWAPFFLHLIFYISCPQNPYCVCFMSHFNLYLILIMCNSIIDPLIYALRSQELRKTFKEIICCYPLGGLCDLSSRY
Assay: Membrane binding assay: competitive inhibition of [125I]NDP-α-MSH binding
Conditions: at 10 μM; [125I]NDP-α-MSH displacement; read-out: Displacement Rate (%) (at 10 μM)
MEASURE_NAME: inhibition at 10 µM

>  <STRUCTURE_SMILES>
Cc1ccc(S(=O)(=O)n2cc(CN3CCCN(C(=O)[C@@H](N)Cc4ccc(OCc5ccccc5)cc4)CC3)c3ccccc32)cc1

>  <TARGET_UNDER_TEST>
cloned human MC4R (Homo sapiens, UniProt P32245)

>  <RESULT_VALUE>
91 to 100%

$$$$
>  <STRUCTURE_SMILES>
N[C@@H](Cc1ccc(OCc2ccccc2)cc1)C(=O)N1CCCN(Cc2cc(F)ccc2F)CC1

>  <TARGET_UNDER_TEST>
cloned human MC4R (Homo sapiens, UniProt P32245)

>  <RESULT_VALUE>
35 to 70%

$$$$
>  <STRUCTURE_SMILES>
CSc1ccc(-c2ccc(C[C@H](N)C(=O)N3CCN(Cc4cccc(Cl)c4Cl)CC3)cc2)cc1

>  <TARGET_UNDER_TEST>
cloned human MC4R (Homo sapiens, UniProt P32245)

>  <RESULT_VALUE>
91 to 100%

$$$$
>  <STRUCTURE_SMILES>
N[C@@H](Cc1ccc(OCc2ccccc2)cc1)C(=O)N1CCCN(Cc2ccc3ccccc3c2)CC1

>  <TARGET_UNDER_TEST>
cloned human MC4R (Homo sapiens, UniProt P32245)

>  <RESULT_VALUE>
35 to 70%

$$$$
>  <STRUCTURE_SMILES>
CCCCCCCCOc1ccc(CN2CCCN(C(=O)[C@@H](N)Cc3ccc(OCc4ccccc4)cc3)CC2)cc1

>  <TARGET_UNDER_TEST>
cloned human MC4R (Homo sapiens, UniProt P32245)

>  <RESULT_VALUE>
91 to 100%

$$$$
>  <STRUCTURE_SMILES>
N[C@@H](Cc1ccc(OCc2ccccc2)cc1)C(=O)N1CCCN(CC2CCCCC2)CC1

>  <TARGET_UNDER_TEST>
cloned human MC4R (Homo sapiens, UniProt P32245)

>  <RESULT_VALUE>
35 to 70%

$$$$

Exam item: Let me know recorded inhibition at 10 µM for `N[C@@H](Cc1ccc(OCc2ccccc2)cc1)C(=O)N1CCCN(C2CCN(CCc3ccccc3)CC2)CC1` , thanks.
Marked response: 35 to 70%

====

Target: cloned human MC4R (Homo sapiens)
Construct: made in house; host or cells: Hi5 insect cells (baculovirus infection); membrane preparation
Assay: Membrane binding assay: competitive inhibition of [125I]NDP-α-MSH binding
Details: at 10 μM; [125I]NDP-α-MSH displacement; read-out: Displacement Rate (%) (at 10 μM)
MEASURE_NAME: inhibition at 10 µM

>  <STRUCTURE_SMILES>
CCOc1ccc(-c2ccc(C[C@H](N)C(=O)N3CCN(Cc4cccc(Cl)c4Cl)CC3)cc2)cc1

>  <TARGET_UNDER_TEST>
cloned human MC4R (Homo sapiens)

>  <inhibition at 10 µM>
91 to 100%

$$$$
>  <STRUCTURE_SMILES>
CN(C)CCCN[C@@H](Cc1ccc(OCc2ccccc2)cc1)C(=O)N1CCN(Cc2cccc(Cl)c2Cl)CC1

>  <TARGET_UNDER_TEST>
cloned human MC4R (Homo sapiens)

>  <inhibition at 10 µM>
91 to 100%

$$$$
>  <STRUCTURE_SMILES>
CCc1ccc(CN2CCN(C(=O)[C@@H](N)Cc3ccc(OCc4ccccc4)cc3)CC2)s1

>  <TARGET_UNDER_TEST>
cloned human MC4R (Homo sapiens)

>  <inhibition at 10 µM>
35 to 70%

$$$$
>  <STRUCTURE_SMILES>
N[C@@H](Cc1ccc(OCc2ccccc2)cc1)C(=O)N1CCN(Cc2ccc(-c3ccccc3)cc2)CC1

>  <TARGET_UNDER_TEST>
cloned human MC4R (Homo sapiens)

>  <inhibition at 10 µM>
91 to 100%

$$$$
>  <STRUCTURE_SMILES>
N[C@@H](Cc1ccc(OCc2ccccc2)cc1)C(=O)N1CCCN(Cc2ccc(C(c3ccccc3)c3ccccc3)cc2)CC1

>  <TARGET_UNDER_TEST>
cloned human MC4R (Homo sapiens)

>  <inhibition at 10 µM>
91 to 100%

$$$$

Exam item: For the compound `CCCCCCCCOc1ccc(CN2CCN(C(=O)[C@@H](N)Cc3ccc(OCc4ccccc4)cc3)CC2)cc1` , give its reported inhibition at 10 µM.
Marked response: 35 to 70%

Exam item: Using known records, supply inhibition at 10 µM for `N[C@@H](Cc1ccc(OCc2ccccc2)cc1)C(=O)N1CCN(Cc2ccc(Cl)cc2Cl)CC1`
Marked response: 71 to 90%

====

Reported inhibition at 10 µM is given for each of the following molecules.
Target: cloned human MC4R (Homo sapiens)
Construct: made in house; host or cells: Hi5 insect cells (baculovirus infection); membrane preparation
Test: Membrane binding assay: competitive inhibition of [125I]NDP-α-MSH binding
Details: at 10 μM; [125I]NDP-α-MSH displacement; read-out: Displacement Rate (%) (at 10 μM)

Recorded inhibition at 10 µM, per entry:
>  <MOLECULE>
Cc1ccccc1-c1ccc(C[C@H](N)C(=O)N2CCN(Cc3cccc(Cl)c3Cl)CC2)cc1 [Example 313]

>  <RESULT_VALUE>
91 to 100%

$$$$
>  <MOLECULE>
COc1ccc(CC(C)N2CCCN(C(=O)[C@@H](N)Cc3ccc(OCc4ccccc4)cc3)CC2)cc1 (stereo partly drawn) [Example 67]

>  <RESULT_VALUE>
35 to 70%

$$$$

Exam item: State inhibition at 10 µM (cloned human MC4R (Homo sapiens)) of CSc1ccc(CN2CCN(C(=O)[C@@H](N)Cc3ccc(OCc4ccccc4)cc3)CC2)cc1 [Example 125] .
Marked response: 71 to 90%

Exam item: Specify inhibition at 10 µM for N[C@@H](Cc1ccc(OCc2ccccc2)cc1)C(=O)N1CCN(Cc2cc3c(cc2[N+](=O)[O-])OCO3)CC1 [Example 154] , system cloned human MC4R (Homo sapiens).
Marked response: 35 to 70%

Exam item: System cloned human MC4R (Homo sapiens). Read-out inhibition at 10 µM. Item CCOc1ccc(CN2CCN(C(=O)[C@@H](N)Cc3ccc(OCc4ccccc4)cc3)CC2)c(OCC)c1C [Example 104] . Report value.
Marked response: 91 to 100%

Exam item: State measured inhibition at 10 µM of the molecule N[C@@H](Cc1ccc(OCc2ccccc2)cc1)C(=O)N1CCCN(Cc2cccc(Oc3cc(Cl)cc(Cl)c3)c2)CC1 [Example 4] with cloned human MC4R (Homo sapiens).
Marked response: 91 to 100%

Exam item: Report value: inhibition at 10 µM, system: cloned human MC4R (Homo sapiens), molecule: Cc1cccc(CN2CCCN(C(=O)[C@@H](N)Cc3ccc(OCc4ccccc4)cc3)CC2)c1 [Example 65]
Marked response: 35 to 70%

Exam item: Retrieve inhibition at 10 µM on cloned human MC4R (Homo sapiens); query CC(COc1ccccc1)N1CCCN(C(=O)[C@@H](N)Cc2ccc(OCc3ccccc3)cc2)CC1 (stereo partly drawn) [Example 49]
Marked response: 35 to 70%

Exam item: Fill in: inhibition at 10 µM on cloned human MC4R (Homo sapiens), entry COc1ccccc1-c1ccc(C[C@H](N)C(=O)N2CCN(Cc3cccc(Cl)c3Cl)CC2)cc1 [Example 326]
Marked response: 71 to 90%

====

Biological target: cloned human MC4R (Homo sapiens)
Construct: made in house; host or cells: Hi5 insect cells (baculovirus infection); membrane preparation
Experiment: Membrane binding assay: competitive inhibition of [125I]NDP-α-MSH binding
Settings: read-out: MC4R IC50
MEASURE_NAME: IC50

>  <COMPOUND>
N[C@@H](Cc1ccc(OCc2ccccc2)cc1)C(=O)N1CCN(Cc2cccc(Cl)c2Cl)CC1 [Example 93]

>  <IC50>
< 1500 nM

$$$$
>  <COMPOUND>
N[C@@H](Cc1ccc(-c2cccc([N+](=O)[O-])c2)cc1)C(=O)N1CCN(Cc2cccc(Cl)c2Cl)CC1 [Example 330]

>  <IC50>
> 3000 nM

$$$$
>  <COMPOUND>
Cc1cccc(CN2CCCN(C(=O)[C@@H](N)Cc3ccc(OCc4ccccc4)cc3)CC2)c1 [Example 65]

>  <IC50>
> 3000 nM

$$$$
>  <COMPOUND>
N[C@@H](Cc1ccc(OCc2ccccc2)cc1)C(=O)N1CCCN(Cc2ccc(C(F)(F)F)cc2F)CC1 [Example 28]

>  <IC50>
> 3000 nM

$$$$

Exam item: Return reported IC50. Input compound: N[C@@H](Cc1ccc(OCCCc2ccc(OCc3ccccc3)cc2)cc1)C(=O)N1CCN(Cc2cccc(Cl)c2Cl)CC1 [Example 260]
Marked response: < 1500 nM

Exam item: Answer with reported IC50 of CCN[C@@H](Cc1ccc(OCc2ccccc2)cc1)C(=O)N1CCN(Cc2cccc(Cl)c2Cl)CC1 [Example 166]
Marked response: < 1500 nM

src = patent US6916812B2
